TESTED_TARGET: GTPase KRas (Homo sapiens, UniProt P01116, G12C)
ASSAY_NOTES: Inhibition of biotinylated Avi-tagged GDP-bound KRAS G12C mutant (1 to 185 residues) (unknown origin) assessed as inhibition of KRAS G12C mutant/SOS/GST-tagged c-Raf complex formation incubated for 1 hr and measured by fluorescence based assay
ASSAY_METRIC: IC50 (nM)

> print(dat)
                                 chem.smiles                             tested.target  result.qualifier  recorded.number
 1  C=CC(=O)N1CC2(CCN(c3nc(OCCCN4CCOCC4)nc4c(F)c(-c5c(C)ccc6[nH]ncc56)c(Cl)cc34)CC2)C1  GTPase KRas (Homo sapiens, UniProt P01116, G12C)                 =              650
 2  C=CC(=O)N1CC2(C1)CN(c1nc(NC3CCN(C)CC3)nc3c(F)c(-c4c(C)ccc5[nH]ncc45)c(Cl)cc13)C2  GTPase KRas (Homo sapiens, UniProt P01116, G12C)                 =             3000
 3  C=CC(=O)N1CCC2(CC1)CN(c1nc(NC3CCN(C)CC3)nc3c(F)c(-c4c(C)ccc5[nH]ncc45)c(Cl)cc13)C2  GTPase KRas (Homo sapiens, UniProt P01116, G12C)                 >            30000
 4  C=CC(=O)N1CC2(CCN(c3nc(N(C)C4CCN(CC)CC4)nc4c(F)c(-c5c(C)ccc6[nH]ncc56)c(Cl)cc34)CC2)C1  GTPase KRas (Homo sapiens, UniProt P01116, G12C)                 =             3200
 5  C=CC(=O)N1CC2(CCN(c3nc(OCCCN(C)C)nc4c(F)c(-c5c(C)ccc6[nH]ncc56)c(Cl)cc34)CC2)C1  GTPase KRas (Homo sapiens, UniProt P01116, G12C)                 =              260
 6  C=CC(=O)N1CC2(CCN(c3nc(OCCN(C)C)nc4c(F)c(-c5c(C)ccc6[nH]ncc56)c(Cl)cc34)CC2)C1  GTPase KRas (Homo sapiens, UniProt P01116, G12C)                 =              340
 7  C=CC(=O)N1CC2(CCN(c3nc(OCC4CCN(C)CC4)nc4c(F)c(-c5c(C)ccc6[nH]ncc56)c(Cl)cc34)CC2)C1  GTPase KRas (Homo sapiens, UniProt P01116, G12C)                 =              130
 8  CCN1CCC(Oc2nc(N3CCC4(CC3)CN(C(=O)/C=C/CN3CCOCC3)C4)c3cc(Cl)c(-c4c(C)ccc5[nH]ncc45)c(F)c3n2)CC1  GTPase KRas (Homo sapiens, UniProt P01116, G12C)                 >            10000
 9  C=CC(=O)N1CCN(c2nc(NC3CCN(C)CC3)nc3c(F)c(-c4c(C)ccc5[nH]ncc45)c(Cl)cc23)CC1  GTPase KRas (Homo sapiens, UniProt P01116, G12C)                 =              470
10  C=CC(=O)N1CC2(CCN(c3nc(OC4CCOCC4)nc4c(F)c(-c5c(C)ccc6[nH]ncc56)c(Cl)cc34)CC2)C1  GTPase KRas (Homo sapiens, UniProt P01116, G12C)                 =             2100
11  C=CC(=O)N1CC2(CCN(c3nc(SC4CCN(CC)CC4)nc4c(F)c(-c5c(C)ccc6[nH]ncc56)c(Cl)cc34)CC2)C1  GTPase KRas (Homo sapiens, UniProt P01116, G12C)                 =              940
